target: ALK2 (Mus musculus, UniProt P37172); construct: The C2C12 cell line was selected for the measurement of ALK2 activity using BMP6 as the agonist; host or cells: C2C12; assay: HTRF pSMAD1 cell-based ALK2 assay (C2C12 cells, BMP6 as agonist); settings: cell-based assay, BMP6; read-out: Cell IC50 BMP6
Sequence (P37172 21-509): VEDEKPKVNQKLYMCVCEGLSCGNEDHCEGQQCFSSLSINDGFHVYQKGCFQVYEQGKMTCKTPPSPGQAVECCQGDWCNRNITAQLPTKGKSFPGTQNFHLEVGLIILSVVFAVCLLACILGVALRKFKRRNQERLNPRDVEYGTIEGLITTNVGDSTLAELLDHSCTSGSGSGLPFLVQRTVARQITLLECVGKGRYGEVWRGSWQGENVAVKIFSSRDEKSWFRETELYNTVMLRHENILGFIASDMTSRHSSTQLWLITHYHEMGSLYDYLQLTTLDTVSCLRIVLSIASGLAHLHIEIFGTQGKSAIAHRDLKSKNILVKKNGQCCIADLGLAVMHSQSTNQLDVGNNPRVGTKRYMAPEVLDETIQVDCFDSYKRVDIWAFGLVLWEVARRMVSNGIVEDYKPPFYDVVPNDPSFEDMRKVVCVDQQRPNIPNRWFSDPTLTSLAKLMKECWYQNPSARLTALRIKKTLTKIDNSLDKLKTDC
METRIC: pIC50
Please report pIC50 as the negative decimal logarithm of the molar concentration, giving only the number.

Exercise: Give pIC50 for the following molecule: C[C@@H]1CNC[C@H](C)N1c1ccc(-c2cnc3c(-c4ccc(Cl)c5ccccc45)cnn3c2)cc1
Solution: 5.26

Exercise: Return pIC50 for the following molecule: CC[S+](=O)([O-])c1cccc(-c2cnn3cc(-c4ccc(N5[C@H](C)CNC[C@@H]5C)cc4)cnc23)c1
Solution: 8.89

Exercise: Using known records, supply pIC50 for C[C@@H]1CNC[C@H](C)N1c1ccc(-c2cnc3c(-c4cccc5c(C#N)cccc45)cnn3c2)cc1
Solution: 6.94

Exercise: Determine from records and report pIC50 for CN(C)CCOc1ccc(-c2cnc3c(-c4ccc(S(N)(=O)=O)c5ccccc45)cnn3c2)cc1
Solution: 5.66

Exercise: Give pIC50 for C[C@@H]1CNC[C@H](C)N1c1ccc(-c2cnc3c(-c4cccc(CCO)c4)cnn3c2)cc1
Solution: 5.92

Exercise: Give the measured pIC50 for CC1(c2ccc(-c3cnc4c(-c5cccc(S(C)(=O)=O)c5)cnn4c3)cc2)CCNCC1
Solution: 7.96

Exercise: Please list pIC50 recorded for the molecule c1ccc(-c2cnn3cc(-c4ccc(CCN5CCCCC5)cc4)cnc23)cc1
Solution: 5.23

* * *

target: ALK3 (Homo sapiens, UniProt P36894); assay: TR-FRET enzymatic ALK kinase assay, ALK3
Sequence (P36894 24-532): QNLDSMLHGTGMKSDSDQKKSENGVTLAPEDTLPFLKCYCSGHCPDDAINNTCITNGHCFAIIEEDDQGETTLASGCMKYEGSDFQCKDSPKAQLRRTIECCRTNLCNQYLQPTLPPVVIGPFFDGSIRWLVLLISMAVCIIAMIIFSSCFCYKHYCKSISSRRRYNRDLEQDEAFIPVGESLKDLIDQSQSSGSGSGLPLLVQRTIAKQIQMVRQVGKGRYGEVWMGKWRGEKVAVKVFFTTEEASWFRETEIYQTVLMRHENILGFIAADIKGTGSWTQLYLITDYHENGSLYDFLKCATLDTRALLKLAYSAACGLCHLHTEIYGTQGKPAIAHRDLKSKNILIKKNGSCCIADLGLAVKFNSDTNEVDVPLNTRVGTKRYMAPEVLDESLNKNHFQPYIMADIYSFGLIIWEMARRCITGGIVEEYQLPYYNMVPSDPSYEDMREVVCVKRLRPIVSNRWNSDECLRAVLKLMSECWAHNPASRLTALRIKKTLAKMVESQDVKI
METRIC: IC50

Exercise: Indicate the recorded IC50 value for this compound: CS(=O)(=O)c1cccc(-c2cnn3cc(-c4ccc(C5CCNCC5)cc4)cnc23)c1
Solution: 6.1 µM

Exercise: Return reported IC50. Input compound: CS(=O)(=O)c1cccc(-c2cnn3cc(-c4ccc(C(F)(F)CN5CCCCC5)cc4)cnc23)c1
Solution: > 10 µM

Exercise: Give recorded IC50. C[C@@H]1CNC[C@H](C)N1c1ccc(-c2cnc3c(-c4ccc(N)c(S(N)(=O)=O)c4)cnn3c2)cc1
Solution: 1.7 µM

Exercise: Return the recorded IC50 value; entry: C[C@@H](O)c1cccc(-c2cnn3cc(-c4ccc(OCCN5CCCC5)cc4)cnc23)c1
Solution: 3.3 µM

* * *

target: ALK2 (Mus musculus); construct: The C2C12 cell line was selected for the measurement of ALK2 activity using BMP6 as the agonist; host or cells: C2C12; assay: HTRF pSMAD1 cell-based ALK2 assay (C2C12 cells, BMP6 as agonist); details: cell-based assay, BMP6; read-out: Cell IC50 BMP6
METRIC: pIC50
Scale for pIC50: -log10 of concentration given in mol/L; no unit attached.

Exercise: Report pIC50 from ALK2 (Mus musculus) testing of O=[S+]([O-])(c1cccc(-c2cnn3cc(-c4ccc(CCN5CCCCC5)cc4)cnc23)c1)C1CC1 [Compound 112]
Solution: 8.10

Exercise: Specify the recorded pIC50 for CS(=O)(=O)c1cccc(-c2cnn3cc(-c4ccc(OCCN5CCCC5)cc4)cnc23)c1 [Compound 108] , system: ALK2 (Mus musculus).
Solution: 6.73

Exercise: GET pIC50 | system: ALK2 (Mus musculus) | item: CC(C)(CN1CCCCC1)Oc1ccc(-c2cnc3c(-c4cccc(S(N)(=O)=O)c4)cnn3c2)cc1 [Compound 96]
Solution: 6.82

Exercise: Report its pIC50 with ALK2 (Mus musculus) as the test system: C[C@@H]1CNC[C@H](C)N1c1ccc(-c2cnc3c(-c4cccc5c(CO)cccc45)cnn3c2)cc1 [Compound 20]
Solution: 7.85
